Each record here notes measured pIC50.
Test system: U266 cell line
Experiment: Proliferation assay
Type: cell-based
Details: Homo sapiens, U-266, 1q amp 3×, BRD4/BET inhibition, read-out: IC50
pIC50: −log10 of the molar value.
Reported property: pIC50

smiles_notation=Cc1sc2c(c1C)C(c1ccc(Cl)cc1)=N[C@@H](CC(=O)OC(C)(C)C)c1nnc(C)n1-2 reported_property=pIC50 numeric_result=7.83
smiles_notation=Cn1cc(-c2cc(S(C)(=O)=O)ccc2OCC2CC2)c2ccccc2c1=O reported_property=pIC50 numeric_result=7.47

###

Test system: AMO1 cell line
Experiment: Proliferation assay
Format: cell-based
Conditions: Homo sapiens, 72 h; AMO1; Day 3 post treatment; NEK2 inhibitor; read-out: IC50 concentration, proliferation
pIC50: −log10 of the molar value.
Each record here notes measured pIC50.
Reported property: pIC50

compound=C#CC(=O)Nc1ccc2c(c1)/C(=C/c1[nH]c(CC)nc1C)C(=O)N2 target_or_system="AMO1 cell line" numeric_result=6.32
compound="CC(/C=C\\C(F)(F)F)Oc1cc(-c2cc(-c3cc(CN(C)C)cs3)cnc2N)ccc1C(N)=O (racemic)" target_or_system="AMO1 cell line" numeric_result=5.15
